- assay_summary: Half life of the compound under aerobic condition
measure: half-life (days)
I only need the number, in days, no unit after it.

Input: Sample COc1c(Cl)ccc(Cl)c1C(=O)O [3,6 DICHLOROMETHOXYBENZOIC ACID] — what was its half-life?
Output: 31

* * *

- assay_summary: Half life of the compound
measure: half-life
# output: numeric value plus its unit

Input: Sample "COc1c(Cl)ccc(Cl)c1C(=O)O" — what was its half-life?
Output: 168 h

Source: ChEMBL document CHEMBL3046394
